# Experimental system: T1, 4H3905-AA
# T1 chain: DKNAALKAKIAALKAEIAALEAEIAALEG
# Test protocol: two-hybrid library CCmax;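 also: natural log of median RNA to DNA barcode read ratio; higher means stronger binding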
# Conditions: mean of both orientations
Measured metric: interaction score

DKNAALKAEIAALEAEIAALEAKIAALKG [4H3590-AA] :: 2.01
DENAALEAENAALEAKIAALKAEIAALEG [4H1193-AA] :: -0.00198
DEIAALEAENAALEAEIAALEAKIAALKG [4H134-AA] :: 1.17

a: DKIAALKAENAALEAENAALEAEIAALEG [4H2705-AA]
b: DKNAALKAEIAALEAEIAALEAENAALEG [4H3587-AA]
c: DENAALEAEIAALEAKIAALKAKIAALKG [4H1070-AA]
d: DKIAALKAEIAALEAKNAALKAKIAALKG [4H2622-AA]
Arrange the 4 binders by rising interaction score, starting with the smallest. Give me the labels in the order the question wants.
a, b, d, c

A: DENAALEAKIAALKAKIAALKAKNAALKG [4H1392-AA]
B: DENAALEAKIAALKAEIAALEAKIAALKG [4H1350-AA]
In terms of reported interaction score, does A or B have the smaller number? Return value: the label identifying the chosen record.
A
(A: 0.91, B: 1.9)

a: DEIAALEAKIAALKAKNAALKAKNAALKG [4H384-AA]
b: DEIAALEAKIAALKAENAALEAEIAALEG [4H337-AA]
In terms of reported interaction score, does a or b have the smaller number? Return value: the label identifying the chosen record.
b
